# Experiment: Orally bioavailability in rats
# Type: ADME, organism-based
# Experimental Context: rat, in vivo, po; read-out: Bioavailabiility
Observable: bioavailability (%)
Report only the number, with the unit % understood.

Data request, read-out bioavailability, for COC(=O)N[C@H](C(=O)N[C@@H](Cc1ccccc1)[C@@H](O)CN(Cc1ccc(-c2ccccn2)cc1)NC(=O)[C@@H](NC(=O)OC)C(C)(C)C)C(C)(C)C
20

---

# System Under Test: Matrix metalloproteinase-9 (Homo sapiens, UniProt P14780)
# Sequence (P14780 whole entry): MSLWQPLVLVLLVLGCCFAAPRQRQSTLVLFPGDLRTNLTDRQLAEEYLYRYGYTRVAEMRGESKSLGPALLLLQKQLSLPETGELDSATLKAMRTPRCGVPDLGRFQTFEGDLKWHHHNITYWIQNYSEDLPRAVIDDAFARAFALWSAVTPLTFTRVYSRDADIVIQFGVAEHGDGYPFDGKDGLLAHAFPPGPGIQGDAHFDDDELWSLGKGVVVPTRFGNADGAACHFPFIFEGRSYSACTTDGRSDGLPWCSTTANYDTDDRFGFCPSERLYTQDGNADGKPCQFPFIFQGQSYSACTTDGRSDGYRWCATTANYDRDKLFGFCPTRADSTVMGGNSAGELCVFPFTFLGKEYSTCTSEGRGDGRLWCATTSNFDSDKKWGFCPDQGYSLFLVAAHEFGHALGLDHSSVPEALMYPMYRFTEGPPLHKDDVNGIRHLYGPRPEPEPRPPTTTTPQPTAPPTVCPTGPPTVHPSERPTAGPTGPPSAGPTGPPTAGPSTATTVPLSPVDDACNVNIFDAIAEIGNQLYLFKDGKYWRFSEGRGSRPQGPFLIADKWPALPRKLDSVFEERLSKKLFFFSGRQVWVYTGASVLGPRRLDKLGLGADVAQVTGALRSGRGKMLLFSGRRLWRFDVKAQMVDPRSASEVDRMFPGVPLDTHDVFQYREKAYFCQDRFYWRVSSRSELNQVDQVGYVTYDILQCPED
# Experiment: Inhibition of matrix metalloprotease-9 (MMP-9).
Observable: Ki (nM)
Report only the number, with the unit nM understood.

Data request, read-out Ki, for COc1ccc(S(=O)(=O)N2CC(C)(C)CN(S(=O)(=O)c3ccc(OC)cc3)C2C(=O)NO)cc1
30
